Data origin: paper PMC12074479

Assay: BALB 3T3 Neutral Red Uptake cytotoxicity/phototoxicity test
Settings: mouse, Mean CC50 ± SD, +Irr, BALB 3T3 cells, irradiated 2.4 J/cm^2, NRU
Where a SMILES comes first, the peptide text is derived from it. [ ]: non-standard residue; d: D form. Orn = NCCC[C@H](N)C(=O)O
Readout Kind: CC50

- CC[C@H](C)[C@H](NC(=O)[C@H](CCCN)NC(=O)[C@H](CCCCN)NC(=O)[C@@H](NC(=O)[C@@H](NC(=O)[C@H](CC(=O)O)NC(=O)[C@H](Cc1ccccc1)NC(=O)[C@H](CC(C)C)NC(=O)CN)[C@@H](C)CC)[C@@H](C)CC)C(=O)N[C@@H](C)C(=O)N[C@@H](CCC(=O)O)C(=O)N[C@@H](CO)C(=O)N[C@@H](Cc1ccccc1)C(N)=O [EH [Orn]^8] (H-GLFDIIK[Orn]IAESF-NH2): 59.5 µM
- CC[C@H](C)[C@H](NC(=O)[C@H](CCCN)NC(=O)[C@H](CCCN)NC(=O)[C@@H](NC(=O)[C@@H](NC(=O)[C@H](CC(=O)O)NC(=O)[C@H](Cc1ccccc1)NC(=O)[C@H](CC(C)C)NC(=O)CN)[C@@H](C)CC)[C@@H](C)CC)C(=O)N[C@@H](C)C(=O)N[C@@H](CCC(=O)O)C(=O)N[C@@H](CO)C(=O)N[C@@H](Cc1ccccc1)C(N)=O [EH [Orn]^7,8] (H-GLFDII[Orn][Orn]IAESF-NH2): 101 µM
- CC[C@H](C)[C@H](NC(=O)[C@H](CCCCN)NC(=O)[C@H](CCCN)NC(=O)[C@@H](NC(=O)[C@@H](NC(=O)[C@H](CC(=O)O)NC(=O)[C@H](Cc1ccccc1)NC(=O)[C@H](CC(C)C)NC(=O)CN)[C@@H](C)CC)[C@@H](C)CC)C(=O)N[C@@H](C)C(=O)N[C@@H](CCC(=O)O)C(=O)N[C@@H](CO)C(=O)N[C@@H](Cc1ccccc1)C(N)=O [EH [Orn]^7] (H-GLFDII[Orn]KIAESF-NH2): 102 µM

====

System: MCF-7
Assay: cells
Conditions: 72 h
Experimental: The peptides were studied for antiproliferative activity with an MTT-dye reduction assay. Cell cultures were incubated with the test peptides in twofold increasing concentrations (from 2 to 500 μM) for 72 h. The antiproliferative activity of the peptides was determined in normal epithelial cells (MCF-12F) and tumor cells (MCF-7 and MDA-MB-231) by MTT-assay. […] The optical density of the formazan was measured at λ = 540 nm using a microplate reader. […]
pIC50: −log10 of the molar value. Where a SMILES comes first, the peptide text is derived from it. [ ]: non-standard residue; d: D form. Dab = NCC[C@H](N)C(=O)O; Dap = NC[C@H](N)C(=O)O
# pIC50 values compiled below
Readout Kind: pIC50

• CC[C@H](C)[C@H](NC(=O)[C@H](CCCCN)NC(=O)[C@H](CCN)NC(=O)[C@@H](NC(=O)[C@@H](NC(=O)[C@H](CC(=O)O)NC(=O)[C@H](Cc1ccccc1)NC(=O)[C@H](CC(C)C)NC(=O)CN)[C@@H](C)CC)[C@@H](C)CC)C(=O)N[C@@H](C)C(=O)N[C@@H](CCC(=O)O)C(=O)N[C@@H](CO)C(=O)N[C@@H](Cc1ccccc1)C(N)=O [EH [Dab]^7] (H-GLFDII[Dab]KIAESF-NH2) = 4.13
• CC[C@H](C)[C@H](NC(=O)[C@H](CN)NC(=O)[C@H](CN)NC(=O)[C@@H](NC(=O)[C@@H](NC(=O)[C@H](CC(=O)O)NC(=O)[C@H](Cc1ccccc1)NC(=O)[C@H](CC(C)C)NC(=O)CN)[C@@H](C)CC)[C@@H](C)CC)C(=O)N[C@@H](C)C(=O)N[C@@H](CCC(=O)O)C(=O)N[C@@H](CO)C(=O)N[C@@H](Cc1ccccc1)C(N)=O [EH [Dap]^7,8] (H-GLFDII[Dap][Dap]IAESF-NH2) = 3.54
• CC[C@H](C)[C@H](NC(=O)[C@H](CCN)NC(=O)[C@H](CCN)NC(=O)[C@@H](NC(=O)[C@@H](NC(=O)[C@H](CC(=O)O)NC(=O)[C@H](Cc1ccccc1)NC(=O)[C@H](CC(C)C)NC(=O)CN)[C@@H](C)CC)[C@@H](C)CC)C(=O)N[C@@H](C)C(=O)N[C@@H](CCC(=O)O)C(=O)N[C@@H](CO)C(=O)N[C@@H](Cc1ccccc1)C(N)=O [EH [Dab]^7,8] (H-GLFDII[Dab][Dab]IAESF-NH2) = 4.04
• CC[C@H](C)[C@H](NC(=O)[C@H](CCN)NC(=O)[C@H](CCCCN)NC(=O)[C@@H](NC(=O)[C@@H](NC(=O)[C@H](CC(=O)O)NC(=O)[C@H](Cc1ccccc1)NC(=O)[C@H](CC(C)C)NC(=O)CN)[C@@H](C)CC)[C@@H](C)CC)C(=O)N[C@@H](C)C(=O)N[C@@H](CCC(=O)O)C(=O)N[C@@H](CO)C(=O)N[C@@H](Cc1ccccc1)C(N)=O [EH [Dab]^8] (H-GLFDIIK[Dab]IAESF-NH2) = 4.17
